Origin of values: paper PMC7037052

test: RP-HPLC retention on Cosmosil Cholester column, buffer pH 7.4-acetonitrile; type: physicochemical; settings: slope of Soczewiński-Wachtmeister equation, acetonitrile φ 0.4–0.6
compounds and their reported s Cholester
# print the numeric value only

[ask] Let me know recorded s Cholester for Cc1ccc(N2CCn3c2nnc(Cc2ccc(Cl)cc2)c3=O)cc1 [Compound 50] , thanks.
[reply] 5.34

---

Below, each entry is listed with its recorded log kw, ODS.
experiment: RP-HPLC retention on Purosphere RP-18e (ODS) column, buffer pH 7.4-acetonitrile; type: physicochemical; settings: extrapolated to buffer pH 7.4 as mobile phase, 25 °C
Form: value (number only, do not type unit).

Example entries begin here.
RECORD_SMILES: CCc1nnc2n(c1=O)CCN2c1cccc(Cl)c1
log kw, ODS: 1.33

RECORD_SMILES: CCOc1ccc(N2CCn3c2nnc(-c2ccccc2)c3=O)cc1
log kw, ODS: 3.09

RECORD_SMILES: O=c1c(-c2ccccc2)nnc2n1CCN2c1ccc(Cl)c(Cl)c1
log kw, ODS: 3.48

RECORD_SMILES: O=c1c(CCc2ccccc2)nnc2n1CCN2c1ccccc1Cl
log kw, ODS: 2.46

RECORD_SMILES: Cc1cccc(N2CCn3c2nnc(-c2ccco2)c3=O)c1C
log kw, ODS: 2.26

RECORD_SMILES: CCOc1ccc(N2CCn3c2nnc(CC(=O)OC)c3=O)cc1
log kw, ODS: 1.95

RECORD_SMILES: CCOC(=O)Cc1nnc2n(c1=O)CCN2c1ccc(OC)cc1
log kw, ODS: 1.37

RECORD_SMILES: O=c1c(CCc2ccccc2)nnc2n1CCN2c1ccc(Cl)cc1
log kw, ODS: 3.56

[ask] Specify reported log kw, ODS for the compound shown: `COC(=O)Cc1nnc2n(c1=O)CCN2c1ccc(C)cc1`
[reply] 1.90

[ask] Answer with reported log kw, ODS of `CCOc1ccc(N2CCn3c2nnc(Cc2ccc(C)cc2)c3=O)cc1`
[reply] 3.14
